assay: Luminescence activity of ZZ-fused KAZ mutants in crude enzyme solutions; assay type: biochemical; details: Table 9; ZZ-fused (pCold-ZZ-P-); crude enzyme solution, 1 mM DTT; coelenterazine
PROPERTY MEASURED: Relative Luminescence Activity (Imax)
Just the number, please, no unit after it.

MOLECULE: KAZ-V44I-A54I-Y138I: KAZ mutant with three amino acid substitutions V44I, A54I and Y138I, SEQ ID NO: 16 (protein) FTLADFVGDWQQTAGYNQDQVLEQGGLSSLFQALGVSVTPIQKIVLSGENGLKIDIHVIIPYEGLSGFQMGLIEMIFKVVYPVDDHHFKIILHYGTLVIDGVTPNMIDYFGRPYPGIAVFDGKQITVTGTLWNGNKIIDERLINPDGSLLFRVTINGVTGWRLCENILA
OBSERVED: 66.7
//
MOLECULE: KAZ-V44I-A54I: KAZ mutant with two amino acid substitutions V44I and A54I, SEQ ID NO: 10 (protein) FTLADFVGDWQQTAGYNQDQVLEQGGLSSLFQALGVSVTPIQKIVLSGENGLKIDIHVIIPYEGLSGFQMGLIEMIFKVVYPVDDHHFKIILHYGTLVIDGVTPNMIDYFGRPYPGIAVFDGKQITVTGTLWNGNKIYDERLINPDGSLLFRVTINGVTGWRLCENILA
OBSERVED: 15.3
//
MOLECULE: KAZ-V44I: KAZ with single amino acid substitution V44I, SEQ ID NO: 4 (protein) FTLADFVGDWQQTAGYNQDQVLEQGGLSSLFQALGVSVTPIQKIVLSGENGLKADIHVIIPYEGLSGFQMGLIEMIFKVVYPVDDHHFKIILHYGTLVIDGVTPNMIDYFGRPYPGIAVFDGKQITVTGTLWNGNKIYDERLINPDGSLLFRVTINGVTGWRLCENILA
OBSERVED: 7.2

Ask: Name the recorded Relative Luminescence Activity (Imax) of the molecule listed here: KAZ: wild 19 kDa catalytic protein of Oplophorus luciferase (19kOLase), amino acid sequence SEQ ID NO: 2 (protein, listed as Oplophorus gracilirostris) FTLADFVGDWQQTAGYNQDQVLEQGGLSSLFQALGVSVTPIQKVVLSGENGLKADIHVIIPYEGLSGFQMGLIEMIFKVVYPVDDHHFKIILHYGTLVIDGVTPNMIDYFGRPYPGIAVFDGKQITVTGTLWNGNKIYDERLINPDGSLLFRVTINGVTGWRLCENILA
Reply: 1.0

Ask: Answer with reported Relative Luminescence Activity (Imax) of KAZ-A54I: KAZ with single amino acid substitution A54I, SEQ ID NO: 6 (protein) FTLADFVGDWQQTAGYNQDQVLEQGGLSSLFQALGVSVTPIQKVVLSGENGLKIDIHVIIPYEGLSGFQMGLIEMIFKVVYPVDDHHFKIILHYGTLVIDGVTPNMIDYFGRPYPGIAVFDGKQITVTGTLWNGNKIYDERLINPDGSLLFRVTINGVTGWRLCENILA
Reply: 8.4

Value source: patent US10907134B2
